The reported numbers originate from patent US6962933B1.

PROPERTY_NAME: melting point

>>> observed_measurement("Cc1ccc(-c2nc(N)sc2-c2ccncc2)cc1C [Reference Example 23-125]")
"248 to 250 °C"
>>> observed_measurement("Nc1nc(-c2ccccc2)c(-c2ccncc2)s1 [Reference Example 13-15]")
"248 to 250 °C"
>>> observed_measurement("O=C(CCc1ccccc1)Nc1nc(-c2ccccc2)c(-c2ccncc2)s1 [Reference Example 23-30]")
"214 to 216 °C"
>>> observed_measurement("Cc1cc(C)cc(-c2nc(NC(=O)Nc3ccccc3)sc2-c2ccncc2)c1 [Reference Example 23-315]")
"167 to 169 °C"
>>> observed_measurement("COc1ccc(-c2nc(-c3ccc(SC)cc3)sc2-c2ccncc2)cc1 [Reference Example 23-300]")
"127 to 128 °C"
>>> observed_measurement("O=C(Cc1ccccc1)Nc1nc(-c2ccccc2)c(-c2ccncc2)s1 [Reference Example 23-29]")
"233 to 234 °C"
>>> observed_measurement("CCCCNc1nc(-c2cc(C)cc(C)c2)c(-c2ccncc2)s1 [Reference Example 23-280]")
"165 to 168 °C"
>>> observed_measurement("CNc1nc(-c2ccc3c(c2)CCC3)c(-c2cccnc2)s1")
"172 to 173 °C"

---

melting point: recorded values
PROPERTY_NAME: melting point

>>> observed_measurement("CNc1nc(-c2ccc(F)cc2)c(-c2ccncc2)s1 [Reference Example 13-69]")
"205 to 206 °C"
>>> observed_measurement("CCNc1nc(-c2ccc(OC)cc2)c(-c2ccncc2)s1 [Reference Example 23-269]")
"175 to 176 °C"
>>> observed_measurement("CNc1nc(-c2ccc(Cl)cc2)c(-c2ccncc2)s1 [Reference Example 13-70]")
"224 to 225 °C"
>>> observed_measurement("CC(=O)Nc1nc(-c2cccc(Cl)c2)c(-c2ccncc2)s1 [Reference Example 23-49]")
"290 to 293 °C"

---

Entries annotated with measured melting point
PROPERTY_NAME: melting point

>>> observed_measurement("COc1ccc(-c2nc(NC(=O)Nc3ccccc3)sc2-c2ccncc2)cc1 [Reference Example 23-296]")
"217 to 219 °C"
>>> observed_measurement("Cc1ccc(-c2nc(-c3ccc(C[S+]([O-])Cc4ccc(-c5nc(-c6ccc(C)c(C)c6)c(-c6ccncc6)s5)cc4)cc3)sc2-c2ccncc2)cc1C [Reference Example 23-327]")
"161 to 164 °C"
>>> observed_measurement("CCCNc1nc(-c2cc(C)cc(C)c2)c(-c2ccncc2)s1 [Reference Example 23-276]")
"177 to 180 °C"
>>> observed_measurement("Cc1cc(C)cc(-c2nc(NC(=O)c3ccc(C(=O)O)cc3)sc2-c2ccncc2)c1 [Reference Example 23-337]")
"347 to 349 °C"
>>> observed_measurement("Fc1ccc(-c2nc(-c3ccccc3)sc2-c2ccncc2)cc1 [Reference Example 44-1]")
"135 to 137 °C"
>>> observed_measurement("CCCNc1nc(-c2ccc(OC)cc2)c(-c2ccncc2)s1 [Reference Example 23-290]")
"141 to 142 °C"
>>> observed_measurement("Cc1cc(C)cc(-c2nc(NCc3ccccc3)sc2-c2ccncc2)c1 [Reference Example 23-281]")
"186 to 188 °C"
>>> observed_measurement("COc1ccc(-c2nc(NC(=O)c3cccnc3)sc2-c2ccncc2)cc1 [Reference Example 23-101]")
"278 to 281 °C"
